# key: entry, value: IC50
Test: Modulation of gamma secretase in CHO-2B7 cells assessed as reduction in amyloid beta 42 level after 5 hrs by MSD ELISA
Assay type: cell-based
Settings: Cricetulus griseus, CHO-2B7, 5 h

{"Molecule": "CC(=O)O[C@@H]([C@H]1C[C@@H](C)[C@H]2[C@H](O1)[C@H](O)[C@@]1(C)[C@@H]3CC[C@H]4C(C)(C)[C@@H](OC(=O)NC5CNC5)CC[C@@]45C[C@@]35CC[C@]21C)C(C)(C)O", "IC50": "47 nM"}
{"Molecule": "C[C@@H]1C[C@H](COC(=O)N(C)C)O[C@H]2[C@H]1[C@@]1(C)CC[C@@]34C[C@@]35CC[C@H](O[C@H]3CN(C(=O)CC6CC6)CCO3)C(C)(C)[C@@H]5CC[C@H]4[C@]1(C)[C@H]2O", "IC50": "1200 nM"}
{"Molecule": "C[C@@H]1C[C@H]([C@H](O)C(C)(C)O)O[C@H]2[C@H]1[C@@]1(C)CC[C@@]34C[C@@]35CC[C@H](OC(=O)NC3CN6CCC3CC6)C(C)(C)[C@@H]5CC[C@H]4[C@]1(C)[C@H]2O (some centres undefined)", "IC50": "580 nM"}
{"Molecule": "CCO[C@@H]([C@H]1C[C@@H](C)[C@H]2[C@H](O1)[C@H](O)[C@@]1(C)[C@@H]3CC[C@H]4C(C)(C)[C@@H](O[C@H]5CN(CCN6CCOCC6)CCO5)CC[C@@]45C[C@@]35CC[C@]21C)C(C)(C)O", "IC50": "430 nM"}
